- System: K4 kissing-loop RNA reporter;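 also: bound reporter read as fluorescence of individual clusters on recovered sequencing chips by microscopy, with normalized cluster intensities fitted with a binding model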
- procedure_text: apparent KD of K4 kissing-loop reporter; higher = weaker reporter binding
- run_parameters: Eterna round: R107; input ligand: tryptophan 2.4 mM
quantity_name: apparent KD of K4 kissing-loop reporter (nM)
Reply with just the number (in nM).

The examples below pair each entry with its known result.
[
  {
    "macromolecule_sequence": "CCUAUCUCAUACGAUACCAGUCAAUUAAAUUUUAUAAAUGCCAUCACCGAGUGAUGUUCGGACCCUUGGCAGCGUAUGGGAUAGG [Ex Theophylline B K4 2]",
    "apparent KD of K4 kissing-loop reporter, nM": 187
  },
  {
    "macromolecule_sequence": "AGACCUCAGUGAUGUUGAGGUAACGCUGAUACCAGUGACUUAAUUCACCCUUGGCAGCAGUCCACCAAGGUAUCUGAUUAGGUCU [Theo A Ex t5]",
    "apparent KD of K4 kissing-loop reporter, nM": 138
  },
  {
    "macromolecule_sequence": "GUGCGCGCGGCGGCCGCCACUCGCAUGAGAGUGAUGUUCUUGCCCGGGCCGCAAGGCCCGGGUGUGAGGACCGGGCCGGGCUGCG [#2 Same State - Tryptophan B Attempt #26 (HarryS)]",
    "apparent KD of K4 kissing-loop reporter, nM": 425
  },
  {
    "macromolecule_sequence": "CAGCAGAGUGAUGUUCUGCUUACUGCGGAUACCAGCUUUGCCAGAGGCCCUUGGCAGCCGCACGGCUCAGUGAUGUUGGGUCACG [Same State Theophylline A GF 13]",
    "apparent KD of K4 kissing-loop reporter, nM": 301
  }
]

Problem: Which apparent KD of K4 kissing-loop reporter is listed for AGUGAUGUAGUGUGUUGUUUGUGAAGUGAUCGAGGACCGGUACGGCCGCCACUCGAGUGAUGAGUGAGUGAUGUUUGUUUAGUGG [#18 K4 Tryptophan A Same State] ?
Result: 303

###

- System: MS2 coat protein
- procedure_text: apparent KD of MS2 coat protein; designed switch direction (-1 OFF switch, 1 ON switch): -1; higher = weaker reporter binding
- run_parameters: input ligand: none
The threshold is inclusive: apparent KD of MS2 coat protein of exactly 0.03 µM counts as True; values below receive False.

Problem: // inclusive: apparent KD of MS2 coat protein at least 0.03 µM? input: UACUGGACAGGAUAUGUUCUUGAGCACUUGAGGAUCACCCAAGUCAUCAAGAACUCAGGCACAGAAGGGUUUAUGG [salish99_ex5_r4_006] (Eterna round: R97, puzzle: Exclusion 5)
Result: False

###

- System: MS2 coat protein
- procedure_text: apparent KD of MS2 coat protein, switch OFF state (with FMN for OFF switches, without FMN for ON switches); designed switch direction (-1 OFF switch, 1 ON switch): 1; higher = weaker reporter binding
- run_parameters: FMN input: 0 or 200 uM; Eterna round: R93 (includes R88 designs)
Readings of apparent KD of MS2 coat protein for the listed sequences

[
  {
    "macromolecule_sequence": "GUCCAACAUGAGGAUCACCCAUGUGCAUGACACUGAGGAUAUGGGACUAAAGGUGCUGGACCAGAAGGCAGAAGAA [Diatquorbi]",
    "apparent KD of MS2 coat protein": "0.0949 µM"
  },
  {
    "macromolecule_sequence": "AACUACAUUAUGAAGGAUAUCCACAUCAAGACAUGAGGAUCACCCAUGUAAACUUAGAACAUACAGGAGAAGGUCAAGGGUGAAU [JR_SS002_Sub1206]",
    "apparent KD of MS2 coat protein": "0.0692 µM"
  },
  {
    "macromolecule_sequence": "AUAACACAUGAGGAUCACCCAUGUAGAAACAAGUCAGGAUAUCCGAUCCACAUGUGAAAAGGAGAAGGGACACUAA [SS 1 Tesla 6]",
    "apparent KD of MS2 coat protein": "0.146 µM"
  },
  {
    "macromolecule_sequence": "AAAAAACAUGAGGAUCACCCAUGUAAAAAAAUGGGAGGAUAUACAAAGACGAAAGUCAAAGUAGAAGGCCUGAAAA [same state 4]",
    "apparent KD of MS2 coat protein": "0.105 µM"
  },
  {
    "macromolecule_sequence": "CGCGAACAUGAGGAUCACCCAUGUAAAUCGCAUGUAGGAUAUGGGAUACACAUUAAGAUCCCAGAAGGGCGGAAAA [Leeroner]",
    "apparent KD of MS2 coat protein": "0.0235 µM"
  },
  {
    "macromolecule_sequence": "GGGAGACAUGAGGAUCACCCAUGUGAGAAGAGGCGAGGAUAUCGAAAGAAAGAAGAGAAACGAGAAGGCGCGAGAU [salish99-SS1-053]",
    "apparent KD of MS2 coat protein": "0.067 µM"
  },
  {
    "macromolecule_sequence": "CGGAGACAUGAGGAUCACCCAUGUGAGAAGAGGCGAGGAUAUCGAAAAAAAAAAAAAAAACGAGAAGGCGCGAGAU [salish99-SS1-013]",
    "apparent KD of MS2 coat protein": "0.0362 µM"
  },
  {
    "macromolecule_sequence": "AAGAAACAUGAGGAUCACCCAUGUAGAAAUAUGGGAGGAUAUACAAGGACGUAAGUCAAGGUAGAAGGCCUAAGAA [Mat - Same State 1 - Meechl mod - D135]",
    "apparent KD of MS2 coat protein": "0.097 µM"
  },
  {
    "macromolecule_sequence": "AGAGUAAACAGAGAGGAUAUCCAAUAGAAAACAUGAGGAUCACCCAUGUGAAAGAUAAUAAAAUGGGAGAAGGCUCACAAUAAGA [Topaz 43]",
    "apparent KD of MS2 coat protein": "0.0494 µM"
  },
  {
    "macromolecule_sequence": "AAAAAACAUGAGGAUCACCCAUGUCAAAAGACGUGAGGAUAUGUACAGACUUCGGUCUGUACAGAAGGCACGUAAA [SS1 - 1039]",
    "apparent KD of MS2 coat protein": "0.0257 µM"
  }
]

Problem: // returns reported apparent KD of MS2 coat protein for input AACUAACAUGAGGAUCACCCAUGUAUUCAAACAUGAGGAUAUAUAACACAUCAUCGACGGAUAGAAGGCAUAAAUA [JR_SS001_Sub1206]
Result: 0.0866 µM

Problem: What value of measured apparent KD of MS2 coat protein is listed for ACUUCACAUGAGGAUCACCCAUGUCAGGCCGGACUAGGAUAUUAUCAUGCAGCGUAACCAUAAGAAGGAGUAGGAA [JR_SS001_Sub314] ?
Result: 0.0573 µM

Problem: Which apparent KD of MS2 coat protein is listed for UAACAACAUGAGGAUCACCCAUGUCAAACAAAUCGAGGAUAUGGGCAGGAUUCUUCCUAUCUAGAAGGCGAAAACA [Ricexebi] ?
Result: 0.0832 µM

Problem: Which apparent KD of MS2 coat protein reading was recorded for the sequence AAUAUAUUAAGUGAGGAUAUCAAGAAAAAAACAUGAGGAUCACCCAUGUGGGAAACACGAUAGGGUGAGAAGGUACUUAAUAUAU [Samwise Clockwise 19 - Jieux - Same State 2] ?
Result: 0.0425 µM

Problem: Fill in: apparent KD of MS2 coat protein of CGGAGACAUGAGGAUCACCCAUGUGAGAAGAGGCGAGGAUAUCGAAAGAAAGAAGAGAAAUGAGAAGGCGCGAGCC [salish99-SS1-081] is ___
Result: 0.039 µM

Problem: I am curious: what apparent KD of MS2 coat protein value has been reported for AGAAAUAAAAGAGAGGAUAUCUCAAAGAAAACAUGAGGAUCACCCAUGUAAAAGAAAAUAAAAUGGGAGAAGGCUCAUAAUAAAG [JL Skelter Mod 5 In the Red] ?
Result: 0.133 µM

Problem: Fill in: apparent KD of MS2 coat protein of AAAAAACAUGAGGAUCACCCAUGUGAGAACAUGGGAGGAUAUACGAAGACGAAAGUCGAAGUAGAAGGCCUAAAAG [Garnet 79] is ___
Result: 0.0912 µM

Problem: Quick one: apparent KD of MS2 coat protein of AGGAGACAUGAGGAUCACCCAUGUGAGAAGAGGCGAGGAUAUCGAAAGAAAGAAGAGAAACGAGAAGGCGCGAGGG [salish99-SS1-027] ?
Result: 0.0392 µM

Problem: Using the record for AGAAAUAAAACACAGGAUAUCCAAAAUAAAACAUGAGGAUCACCCAUGUAAAAUAAAAUAAAAUGGGAGAAGGGUGAAAAUAAAG [Mat - Same State 2 - JL mod - D10] , report its apparent KD of MS2 coat protein.
Result: 0.0399 µM

Problem: Data request, read-out apparent KD of MS2 coat protein, for AAGAAACAUGAGGAUCACCCAUGUAAGAAUAUGGGAGGAUAUGCGAAAAGAAACAAAGAAGCAGAAGGCCUAAGAA [75%, Ex5 sub 1, 5]
Result: 0.0576 µM

Problem: Need apparent KD of MS2 coat protein, item GUGGCGCAGGUACAGGAUAUGUUUCUCGUAACAUGAGGAUCACCCAUGUACCUAUGAGAUUAAAUGCAGAAGGGUGCACGCCACG [Inedor]
Result: 0.154 µM
